Please find below IC50 measurements for GCN2 (Homo sapiens (Human)), combined from several publications.

Solved entries:
1. FC(F)(F)c1ccc2ncc(-c3ccnc(N4CCN(C[C@@H]5CCCOC5)[C@@H](c5cn[nH]c5)C4)n3)n2c1 :: < 10 nM
2. NC(=O)CC1CN(c2ccnc(-c3cnc4ccc(C(F)(F)F)cn34)n2)C1 :: 10 to 100 nM
3. C[C@@H]1CN(c2ccnc(-c3cnc4ccc(C(F)(F)F)cn34)n2)C[C@H](C)N1C(=O)C1(C)CC1 :: 100 to 1000 nM
4. CC1CCC(C(=O)O)CN1c1ccnc(-c2cnc3ccc(C(F)(F)F)cn23)n1 (centres unmarked) :: 10 to 100 nM
5. COc1cc2ccc1OCCCNC(=O)C1(C)Oc3ccc(cc3NC1=O)Nc1nc(ncc1F)N2 (centres unmarked) :: 300 to 3000 nM

Can you look up the measured IC50 of O=C(O)C1(C2CCCN(c3ccnc(-c4cnc5ccc(Cl)cn45)n3)C2)CC1 (centres unmarked) for me?
10 to 100 nM

For the compound shown here, Cc1n[nH]cc1C1CN(c2nccc(-c3cnc4ccc(Cl)cn34)n2)CC(C)O1 (centres unmarked) , give the reported IC50.
< 10 nM

Which value of IC50 has been reported for CCc1cc(-c2c(F)ccc(NS(=O)(=O)c3ccccc3Cl)c2F)cc2cnc(N[C@H]3CC[C@H](N(C)C)CC3)nc12 in the records?
26.8 nM

---

Below: molecules with IC50 recorded for GCN2 (Homo sapiens (Human), UniProt Q9P2K8) in separate published works.

Example results:
1. Cn1cc(-c2nccn3nc(Nc4ccc5c(c4)NC(=O)OC5(C)C)nc23)cn1 :: 0.3 to 3 µM
2. OCC(O)CN1CCN(c2ccnc(-c3cnc4ccc(C(F)(F)F)cn34)n2)CC1c1cn[nH]c1 (centres unmarked) :: < 0.01 µM
3. C[C@@H]1CN(c2nccc(-c3cnc4ccc(Cl)cn34)n2)C[C@@H](c2cn[nH]c2)O1 :: 0.01 to 0.1 µM
4. CC(C)C(O)c1n[nH]c2cc(Nc3nc4c(-c5cnn(C)c5)nccn4n3)ccc12 (centres unmarked) :: 0.3 to 3 µM
5. O=C(C1CC(F)(F)C1)N1CCN(c2ccnc(-c3cnc4ccc(C(F)(F)F)cn34)n2)CC1c1cn[nH]c1 (centres unmarked) :: 0.1 to 1 µM

Provide the documented IC50 with GCN2 (Homo sapiens (Human), UniProt Q9P2K8) as the system for CC12Oc3ccc(cc3NC1=O)Nc1nc(ncc1F)Nc1cccc(c1)CCNC2=O (centres unmarked)
Sequence (Q9P2K8 whole entry, species assumed): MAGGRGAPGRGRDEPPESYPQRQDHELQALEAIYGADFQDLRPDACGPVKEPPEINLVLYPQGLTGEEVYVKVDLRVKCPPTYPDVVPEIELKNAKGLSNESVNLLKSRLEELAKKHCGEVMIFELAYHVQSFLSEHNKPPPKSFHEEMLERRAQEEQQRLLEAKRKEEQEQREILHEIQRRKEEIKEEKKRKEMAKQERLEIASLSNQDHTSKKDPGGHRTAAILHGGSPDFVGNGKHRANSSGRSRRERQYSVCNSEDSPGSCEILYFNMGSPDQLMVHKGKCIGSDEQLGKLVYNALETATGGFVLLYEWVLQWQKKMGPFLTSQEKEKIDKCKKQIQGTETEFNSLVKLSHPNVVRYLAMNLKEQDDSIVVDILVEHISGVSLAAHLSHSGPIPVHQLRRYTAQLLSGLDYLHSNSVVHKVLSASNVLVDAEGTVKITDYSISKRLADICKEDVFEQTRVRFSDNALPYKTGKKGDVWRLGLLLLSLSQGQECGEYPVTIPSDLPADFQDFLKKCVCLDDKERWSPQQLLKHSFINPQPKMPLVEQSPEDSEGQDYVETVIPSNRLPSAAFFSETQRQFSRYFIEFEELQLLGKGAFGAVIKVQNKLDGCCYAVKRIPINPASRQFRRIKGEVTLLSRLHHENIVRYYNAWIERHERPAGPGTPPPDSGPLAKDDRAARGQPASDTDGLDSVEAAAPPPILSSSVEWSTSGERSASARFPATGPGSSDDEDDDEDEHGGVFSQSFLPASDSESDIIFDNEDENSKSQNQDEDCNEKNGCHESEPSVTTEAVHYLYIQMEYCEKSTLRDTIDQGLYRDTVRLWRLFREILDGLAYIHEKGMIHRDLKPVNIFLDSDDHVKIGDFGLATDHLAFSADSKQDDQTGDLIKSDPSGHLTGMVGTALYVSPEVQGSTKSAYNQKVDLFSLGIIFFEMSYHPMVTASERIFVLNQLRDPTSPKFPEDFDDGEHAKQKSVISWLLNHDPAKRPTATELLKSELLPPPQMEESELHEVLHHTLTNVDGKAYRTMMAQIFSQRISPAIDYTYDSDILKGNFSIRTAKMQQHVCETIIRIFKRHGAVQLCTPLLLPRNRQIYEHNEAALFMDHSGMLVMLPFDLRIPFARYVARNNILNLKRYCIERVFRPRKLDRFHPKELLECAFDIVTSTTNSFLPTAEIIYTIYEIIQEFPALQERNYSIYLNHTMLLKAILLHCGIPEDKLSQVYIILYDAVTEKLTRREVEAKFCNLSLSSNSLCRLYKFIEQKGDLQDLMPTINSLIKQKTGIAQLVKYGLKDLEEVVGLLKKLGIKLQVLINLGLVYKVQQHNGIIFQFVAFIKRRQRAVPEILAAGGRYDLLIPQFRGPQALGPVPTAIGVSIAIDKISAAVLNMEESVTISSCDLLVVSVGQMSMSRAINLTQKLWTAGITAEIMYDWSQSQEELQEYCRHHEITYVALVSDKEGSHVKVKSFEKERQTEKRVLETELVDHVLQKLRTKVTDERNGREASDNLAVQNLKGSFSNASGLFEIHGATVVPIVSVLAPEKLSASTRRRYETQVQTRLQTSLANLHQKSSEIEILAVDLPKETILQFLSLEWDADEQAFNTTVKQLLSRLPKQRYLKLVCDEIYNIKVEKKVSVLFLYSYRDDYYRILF
3 to 50 µM

Observed IC50 on GCN2 (Homo sapiens (Human), UniProt Q9P2K8) for O=C1CCC[C@@H](C(=O)N2CCN(c3ccnc(-c4cnc5ccc(C(F)(F)F)cn45)n3)C[C@@H]2c2cn[nH]c2)N1 , please.
0.1 to 1 µM

Hi! What's the reported IC50 for Cn1cc(Nc2ncc3ncn(-c4ccc(-c5cnn(C)c5)cc4)c3n2)cn1 on GCN2 (Homo sapiens (Human), UniProt Q9P2K8)?
< 1 µM

---

Hi, quick share: literature IC50 data for GCN2 (Homo sapiens (Human), UniProt Q9P2K8), several sources combined.

Below, each entry is followed by its recorded IC50 result.
1. Cc1oncc1C(=O)N1CCN(c2ccnc(-c3cnc4ccc(C(F)(F)F)cn34)n2)C[C@H]1c1cn[nH]c1 :: 100 to 1000 nM
2. FC(F)(F)c1ccc2ncc(-c3nccc(N4CCCC(n5cncn5)C4)n3)n2c1 (stereo not shown) :: 10 to 100 nM
3. COCCNC(=O)[C@H]1CC[C@H](Nc2ncc3cc(-c4c(F)ccc(NS(=O)(=O)c5cc(Cl)cnc5OC)c4F)ccc3n2)CC1 :: 10.2 nM

Value wanted: IC50 (GCN2 (Homo sapiens (Human), UniProt Q9P2K8)) of entry COCCNC(=O)[C@H]1C[C@H](Nc2ncc3cc(-c4c(Cl)ccc(NS(=O)(=O)c5cc(Cl)cnc5OC)c4Cl)ccc3n2)CN1
9.17 nM

Lab note: need IC50 with GCN2 (Homo sapiens (Human), UniProt Q9P2K8) for entry COc1cc(Nc2nc3cncc(-c4cnn(CCC(C)C)c4)n3n2)ccc1N1CCN(C)CC1 , please look it up.
< 1000 nM

Test system GCN2 (Homo sapiens (Human), UniProt Q9P2K8); read-out IC50; what value for CS(=O)(=O)c1ccc2ncc(-c3nccc(N4CCCC(c5cn[nH]c5)C4)n3)n2c1 (stereo not shown) ?
10 to 100 nM

Form field: IC50 recorded for C[C@H]1C[C@@H](c2cn[nH]c2)CN(c2nccc(-c3cnc4ccc(C5CC5)cn34)n2)C1 with GCN2 (Homo sapiens (Human), UniProt Q9P2K8) (enter value)
10 to 100 nM

---

pIC50: −log10 of the molar value.
// compounds with reported pIC50 on GCN2 (Homo sapiens (Human), UniProt Q9P2K8), multi-publication

Consider the following illustrative entries.
1. COc1ncc(Cl)cc1S(=O)(=O)Nc1ccc(F)c(-c2ccc3nc(N[C@@H]4CC[C@@H](C(N)=O)C4)ncc3c2)c1F :: 8.47
2. CC(C)(C)OC(=O)N1CC2(C1)OCCN(c1ccnc(-c3cnc4ccc(C(F)(F)F)cn34)n1)C2(C)C :: 6.00 to 7.00
3. Fc1cccc(CN2CCN(c3ccnc(-c4cnc5ccc(C(F)(F)F)cn45)n3)CC2c2cn[nH]c2)c1 (stereo not shown) :: 7.00 to 8.00
4. NC(=O)C1(c2ccc(Nc3nc4c(-c5cn[nH]c5)nccn4n3)cc2)CC1 :: 4.30 to 5.52
5. Cc1cnc(N2C[C@@H](C)O[C@@H](c3cn[nH]c3C)C2)nc1-c1cnc2ccc(Cl)cn12 :: 7.00 to 8.00
6. COCCOc1ccc(-n2cnc3cnc(Nc4cnn(C5CCN(C)CC5)c4)nc32)cc1 :: > 6.00
7. CN(C)[C@H]1CC[C@H](Nc2ncc3cc(-c4c(F)ccc(NS(=O)(=O)c5ccccc5Cl)c4F)ccc3n2)CC1 :: 7.09
8. C[C@@H]1C[C@H](N=S(C)(C)=O)CN(c2ccnc(-c3cnc4ccc(OC(F)F)cn34)n2)C1 :: 7.00 to 8.00

What measured pIC50 goes with c1ccc(Oc2ccc3ncc(-c4nccc(N5CCCC(c6cn[nH]c6)C5)n4)n3c2)cc1 (stereo not shown) ?
7.00 to 8.00

Data request, read-out pIC50, for COc1ccc(-c2cncc3nc(Nc4ccc(N5CCN(C)CC5)c(OC)c4)nn23)cc1
> 6.00

Fill in the blank: the reported pIC50 of O=C(O)CC1CCCN(c2ccnc(-c3cnc4ccc(C(F)(F)F)cn34)n2)C1 (stereo not shown) is ____.
7.00 to 8.00

I'd like to know its pIC50. The compound in question is COc1cc(-c2cnc3ccc(Cl)cn23)nc(N2C[C@H](C)C[C@H](c3cn[nH]c3)C2)n1
7.00 to 8.00

Any idea what its pIC50 is? The compound is COc1cc(Nc2nc3cncc(-c4cnn(C)c4)n3n2)ccc1NC(C)=O
> 6.00

Which pIC50 is reported for this compound? Cc1ncc(CN2CCN(c3ccnc(-c4cnc5ccc(C(F)(F)F)cn45)n3)CC2c2cn[nH]c2)[nH]1 (stereo not shown)
> 8.00

What value of pIC50 has been recorded for this entry: N#Cc1ccc2ncc(-c3nccc(N4CCOC(c5cn[nH]c5C(F)F)C4)n3)n2c1 (stereo not shown)
> 8.00

Record request: pIC50 value, item Cc1[nH]ncc1[C@H]1CN(c2ccnc(-c3cnc4ccc(C(F)(F)F)cn34)n2)C[C@@H](C)O1
> 8.00

Would you mind telling me what pIC50 value was observed for Cn1nccc1C(=O)N1CCN(c2ccnc(-c3cnc4ccc(C(F)(F)F)cn34)n2)CC1c1cn[nH]c1 (stereo not shown) ?
7.00 to 8.00

Requested read-out: pIC50. Entry: CC(C)(C)OC(=O)N1CC2(C1)CN(c1ccnc(-c3cnc4ccc(C(F)(F)F)cn34)n1)CCO2
6.00 to 7.00

Name the reported pIC50 value associated with the compound C[C@@H]1C[C@H](N=S(C)(C)=O)CN(c2ccnc(-c3cnc4cc(F)c(Cl)cn34)n2)C1
7.00 to 8.00

// query pIC50 value for entry c1cncc(Nc2nc3cncc(-c4ccc(N5CCOCC5)cc4)n3n2)c1
> 6.00

Could you share which pIC50 value was measured for NC(=O)[C@@H]1CC[C@@H](Nc2ncc3ncn(-c4ccc(I)c(F)c4)c3n2)C1 ?
5.30 to 6.00

Which measured pIC50 value corresponds to FC(F)(F)c1ccc2ncc(-c3nccc(N4CCC[C@H](C(F)(F)F)C4)n3)n2c1 ?
6.00 to 7.00

State the recorded pIC50 for this entry: COCCNC(=O)[C@H]1CC[C@H](Nc2ncc3cc(-c4c(Cl)ccc(NS(=O)(=O)c5cc(Cl)cnc5OC)c4Cl)ccc3n2)CC1
7.50

# query: pIC50 of entry O=C(CCn1ccnc1)N1CCN(c2ccnc(-c3cnc4ccc(C(F)(F)F)cn34)n2)CC1c1cn[nH]c1 (stereo not shown)
7.00 to 8.00

Given the compound Cc1oncc1C(=O)N1CCN(c2ccnc(-c3cnc4ccc(C(F)(F)F)cn34)n2)C[C@@H]1c1cn[nH]c1 , what is its reported pIC50?
6.00 to 7.00

Entry under review: O=C(c1c[nH]cn1)N1CCN(c2ccnc(-c3cnc4ccc(C(F)(F)F)cn34)n2)CC1c1cn[nH]c1 (stereo not shown) . Reported pIC50?
7.00 to 8.00

Could you share which pIC50 value was measured for CC1(C)CN(c2ccnc(-c3cnc4ccc(C(F)(F)F)cn34)n2)CCN1C(=O)C1CCC(=O)CC1 ?
7.00 to 8.00

Could you tell me which pIC50 is on file for CC(C)(C)OC(=O)N1CC2(CCCN(c3ccnc(-c4cnc5ccc(C(F)(F)F)cn45)n3)C2)C1 ?
6.00 to 7.00

Look up pIC50: O=C(O)CC1CN(c2ccnc(-c3cnc4ccc(Cl)cn34)n2)CCO1 (stereo not shown)
6.00 to 7.00

What value of measured pIC50 is listed for FC(F)(F)c1ccc2ncc(-c3nccc(N4CCN[C@H](c5cn[nH]c5)C4)n3)n2c1 ?
7.00 to 8.00

# lookup: pIC50 of Cc1[nH]ncc1[C@@H]1[C@H](C)N(c2ccnc(-c3cnc4ccc(C(F)(F)F)cn34)n2)CCN1C1COC1
6.00 to 7.00
